- protocol notes: Equilibrium solubility, gravimetric, from slurry supernatants
- Type: physicochemical
- assay context: IPrOAc slurry supernatant, 35 °C, organic solvent or mixture, thermodynamic from solid, IPrOAc; solid Form B
value kind: solubility

stdin: Can you look up the measured solubility of Cc1ccc(S(=O)(=O)OCCOCCOCCOc2ccc(/C=C/c3ccc(N(C)C(=O)OC(C)(C)C)cc3)cn2)cc1 [AV-105] for me?
stdout: 232 mg/mL

* * *

- protocol notes: Equilibrium solubility, gravimetric, from slurry supernatants
- Assay type: physicochemical
- assay context: THF/cyclohexane 30/70 slurry supernatant, organic solvent or mixture, thermodynamic from solid, THF/cyclohexane 30/70; RT; solid Form B
value kind: solubility (mg/mL)
Give the value, in units of mg/mL, as a plain number.

stdin: Can you look up the measured solubility of Cc1ccc(S(=O)(=O)OCCOCCOCCOc2ccc(/C=C/c3ccc(N(C)C(=O)OC(C)(C)C)cc3)cn2)cc1 [AV-105] for me?
stdout: 370
